System: NCI-H3255
Assay info: Antiproliferative activity against human NCI-H3255 cells incubated for 72 hrs by CCK8 assay
Assay type: functional, cell-based
Reported conditions: NCI-H3255, 72 h
Below, each entry is listed with its recorded pIC50.
Please keep in mind that pIC50 is minus log10 of the molar concentration; only the number is needed.

Record excerpt, results attached:
Compound | Test target | pIC50
COc1cc2ncnc(Nc3ccc(F)c(Cl)c3)c2cc1OCCOCCNC(=O)COc1c(Br)cc(/C=C2\C(=O)Nc3ccc(C)cc32)cc1Br | NCI-H3255 | 5.61
COc1cc2ncnc(Nc3ccc(F)c(Cl)c3)c2cc1OCCOCCOCCOCCNC(=O)C(C)Oc1c(Br)cc(/C=C2\C(=O)Nc3ccc(I)cc32)cc1Br (stereo not drawn) | NCI-H3255 | 5.47

Lab note: next compound to report on.
COc1cc2ncnc(Nc3ccc(F)c(Cl)c3)c2cc1OCCCCCCCCCCNC(=O)COc1c(Br)cc(/C=C2\C(=O)Nc3ccc(I)cc32)cc1Br has a reported pIC50 of 5.31
